protocol details: clinical
assay context: human, in vivo, iv, CL
We use 4 mL/min/kg as the dividing line for clearance: on or above the line is yes, below is no.

{"compound": "CC(CN(C)C)CN1c2ccccc2CCc2ccccc21 (stereo not given) [TRIMIPRAMINE]", "class assignment": "yes"}

**Query** Identify whether the reported clearance of the following compound is 4 mL/min/kg or greater: NCC1(CC(=O)O)CCCCC1 [GABAPENTIN]
**Result** no

**Query** Does the reported clearance for CN(C)CCCC1(c2ccc(F)cc2)OCc2cc(C#N)ccc21 (stereo not given) [CITALOPRAM] fall at or above the 4 mL/min/kg mark?
**Result** yes

**Query** Assess whether reported clearance for COc1ccc(CCNCC(O)COc2cccc(C)c2)cc1OC (stereo not given) [BEVANTOLOL] sits at 4 mL/min/kg or higher.
**Result** yes

**Query** Hi, just wondering whether CCN(CC)C(=O)/C(C#N)=C/c1cc(O)c(O)c([N+](=O)[O-])c1 [ENTACAPONE] shows clearance of 4 mL/min/kg or higher.
**Result** yes

----------
protocol details: clinical
assay context: human, in vivo, iv, t1/2
measured attribute: half-life

{"compound": "COc1ccc2c(c1)c(CC(=O)O)c(C)n2C(=O)c1ccc(Cl)cc1 [INDOMETHACIN]", "half-life": "1.4 h"}
{"compound": "C[C@@H](O)[C@H]1C(=O)N2C(C(=O)O)=C(SCCN=CN)C[C@H]12 [IMIPENEM ANHYDROUS]", "half-life": "0.95 h"}
{"compound": "NC(=O)c1csc([C@@H]2O[C@H](CO)[C@@H](O)[C@H]2O)n1 [TIAZOFURIN]", "half-life": "5.9 h"}

Field: next compound
**Query** Indicate the recorded half-life value for this compound: CO/N=C(\C(=O)N[C@@H]1C(=O)N2C(C(=O)O)=C(CSc3nc(C)c(CC(=O)O)s3)CS[C@H]12)c1csc(N)n1 [CEFODIZIME]
**Result** 4.2 h

----------
protocol details: clinical
assay context: human, in vivo, iv, Vdss
Reported Vd values follow for various compounds
Note: unit L/kg is implicit; provide only the numeric part.

{"compound": "C[C@](N)(Cc1ccc(O)c(O)c1)C(=O)O", "Vd (L/kg)": 0.69}
{"compound": "CN1C2CCCC1CC(NC(=O)c1nn(C)c3ccccc13)C2 (stereo not drawn)", "Vd (L/kg)": 3.7}
{"compound": "COc1cc(NCc2ccc3nc(N)nc(N)c3c2C)cc(OC)c1OC [TRIMETREXATE]", "Vd (L/kg)": 0.77}
{"compound": "O.O=P(O)(O)C(O)(Cn1ccnc1)P(=O)(O)O", "Vd (L/kg)": 0.6}
{"compound": "CN(C)CCc1c[nH]c2ccc(CS(=O)(=O)N3CCCC3)cc12", "Vd (L/kg)": 2.2}

**Query** Input `C[C@H]1O[C@@H](O[C@H]2[C@@H](O)C[C@H](O[C@H]3[C@@H](O)C[C@H](O[C@H]4CC[C@@]5(C)[C@H](CC[C@@H]6[C@@H]5C[C@@H](O)[C@]5(C)[C@@H](C7=CC(=O)OC7)CC[C@]65O)C4)O[C@@H]3C)O[C@@H]2C)C[C@H](O)[C@@H]1O` , output reported Vd.
**Result** 4.1

**Query** Name the recorded Vd of the compound listed here: `CN1C(=O)CC[C@H]1c1cccnc1`
**Result** 1.1

**Query** State, in one line, measured Vd of `COc1cc(NS(C)(=O)=O)ccc1Nc1c2ccccc2nc2ccccc12`
**Result** 1.6

----------
assay context: human, in vivo, iv
measured attribute: Vdss (L/kg)
Please give a number only; it is taken to be in L/kg.

Examples with answers:
{"molecule": "COC(=O)C(c1ccccc1)C1CCCCN1 (centres undefined) [METHYLPHENIDATE]", "Vdss [L/kg]": 2.2}
{"molecule": "COc1ccnc(C[S+]([O-])c2nc3ccc(OC(F)F)cc3[nH]2)c1OC (centres undefined)", "Vdss [L/kg]": 0.17}
{"molecule": "O=[N+]([O-])O[C@H]1CO[C@H]2[C@@H]1OC[C@H]2O[N+](=O)[O-] [ISOSORBIDE DINITRATE]", "Vdss [L/kg]": 1.9}

**Query** Please list Vdss recorded for the molecule `CCCCS(=O)(=O)N[C@@H](Cc1ccc(OCCCCC2CCNCC2)cc1)C(=O)O`
**Result** 0.99

----------
protocol details: clinical
assay context: human, in vivo, iv, CL
measured attribute: clearance (mL/min/kg)
Please give a number only; it is taken to be in mL/min/kg.

{"compound": "Cc1onc(-c2ccccc2)c1C(=O)N[C@@H]1C(=O)N2[C@@H]1SC(C)(C)[C@@H]2C(=O)O", "clearance [mL/min/kg]": 6.3}
{"compound": "C[C@]12CC[C@@H]3c4ccc(OC(=O)N(CCCl)CCCl)cc4CC[C@H]3[C@@H]1CC[C@@H]2OP(=O)(O)O [ESTRAMUSTINE PHOSPHATE]", "clearance [mL/min/kg]": 0.94}
{"compound": "Nc1nc(Cl)nc2c1ncn2[C@H]1C[C@H](O)[C@@H](CO)O1", "clearance [mL/min/kg]": 14}
{"compound": "O=NN(CCCl)C(=O)NCCCl", "clearance [mL/min/kg]": 78}
{"compound": "NC[C@H]1CC[C@H](C(=O)O)CC1", "clearance [mL/min/kg]": 2.4}

**Query** Give a short answer stating reported clearance for `S=P(N1CC1)(N1CC1)N1CC1` .
**Result** 6.7

**Query** Identify clearance associated with the compound `CNC(=O)c1c(I)c(NC(C)=O)c(I)c(C(=O)O)c1I`
**Result** 2.4

**Query** Please supply the value of reported clearance for the item `Nc1ccc(S(=O)(=O)Nc2ncccn2)cc1`
**Result** 0.55

**Query** Given `Clc1cccc(N2CCNCC2)c1` , respond with its clearance.
**Result** 6.1

**Query** Give recorded clearance. `C#C[C@]1(O)CC[C@H]2[C@@H]3CCc4cc(O)ccc4[C@H]3CC[C@@]21C`
**Result** 7

----------
protocol details: clinical
assay context: human, in vivo, iv, Vdss
Simple rule here: Vd less than 0.8 L/kg is true (1), otherwise false (0).

Solved entries:
{"compound": "Cc1cccc(Nc2ccncc2S(=O)(=O)NC(=O)NC(C)C)c1 [TORSEMIDE]", "class assignment": "true (1)"}
{"compound": "CCN(CC)CC#CCOC(=O)C(O)(c1ccccc1)C1CCCCC1 (stereo not given)", "class assignment": "false (0)"}
{"compound": "CN(C)CCC=C1c2ccccc2COc2ccccc21 [DOXEPIN]", "class assignment": "false (0)"}
{"compound": "CCN1C[C@H]2CN(C)C[C@H](C1)C2OC(=O)c1ccc(Cl)cc1 (stereo not given in full)", "class assignment": "false (0)"}

Next item in the queue.
**Query** Confirm or reject: Vd of `Clc1cccc(N2CCNCC2)c1` lies strictly below 0.8 L/kg
**Result** false (0)

----------
protocol details: clinical
assay context: human, in vivo, iv, CL
Readings of log10 clearance for the listed molecules
Annotation: log10 of clearance, mL/min/kg basis.

// solved cases for log10 clearance follow
{"molecule": "CCCCCCCCCC(=O)N[C@@H](Cc1c[nH]c2ccccc12)C(=O)N[C@H](CC(N)=O)C(=O)N[C@@H](CC(=O)O)C(=O)N[C@@H]1C(=O)NCC(=O)N[C@@H](CCCN)C(=O)N[C@@H](CC(=O)O)C(=O)N[C@H](C)C(=O)N[C@@H](CC(=O)O)C(=O)NCC(=O)N[C@H](CO)C(=O)N[C@@H]([C@H](C)CC(=O)O)C(=O)N[C@@H](CC(=O)c2ccccc2N)C(=O)O[C@@H]1C", "measured value": -0.80}
{"molecule": "Nc1ccn([C@@H]2O[C@H](CO)[C@@H](O)C2(F)F)c(=O)n1 [GEMCITABINE]", "measured value": 1.51}
{"molecule": "CCCNC(C)C(=O)Nc1ccccc1C (stereo not given) [PRILOCAINE]", "measured value": 1.46}
{"molecule": "CN(C)/N=N/c1[nH]cnc1C(N)=O [DACARBAZINE]", "measured value": 0.41}

--- query ---
**Query** State, in one line, measured log10 clearance of CCC[C@H](N[C@@H](C)C(=O)N1[C@H](C(=O)O)C[C@@H]2CCCC[C@@H]21)C(=O)O [PERINDOPRILAT]
**Result** 0.23

----------
protocol details: clinical
assay context: human, in vivo, iv, Vdss
Numbered stars: 1 amine (or outer) side, 2 acyl side, 3 side chain; on linkers, the order of the positions; unused ones are H or OH. Bridge positions count the residues as written; N and C are the ends. Square brackets hold non-standard residues; d marks the D form. Peptide text beside a SMILES is read from it. * marks the point of attachment. pTerphenylCO(4''-OnC5H11) = CCCCCOc1ccc(-c2ccc(-c3ccc(C(=O)*)cc3)cc2)cc1; Orn(4R-OH,5R-OH) = O=C([C@H](C[C@@H](O)[C@@H](O)N[*:3])N[*:1])[*:2]; hTyr(3S-OH,4S-OH) = N[C@H](C(=O)O)[C@H](O)[C@@H](O)c1ccc(O)cc1; Pro(3S-OH,4S-Me) = C[C@H]1CN[C@H](C(=O)O)[C@H]1O; Hyp = O=C(O)[C@@H]1C[C@@H](O)CN1
measured attribute: Vd (L/kg)
A number alone suffices; assume L/kg.

Please review the following examples before continuing.
{"compound": "CCCCCOc1ccc(-c2ccc(-c3ccc(C(=O)N[C@H]4C[C@@H](O)[C@@H](O)NC(=O)[C@@H]5[C@@H](O)[C@@H](C)CN5C(=O)[C@H]([C@@H](C)O)NC(=O)[C@H]([C@H](O)[C@@H](O)c5ccc(O)cc5)NC(=O)[C@@H]5C[C@@H](O)CN5C(=O)[C@H]([C@@H](C)O)NC4=O)cc3)cc2)cc1 [ANIDULAFUNGIN] ({pTerphenylCO(4''-OnC5H11)}-[Orn(4R-OH,5R-OH)]T[Hyp][hTyr(3S-OH,4S-OH)]T[Pro(3S-OH,4S-Me)]; lactam 1-C)", "Vd [L/kg]": 0.57}
{"compound": "O=C1OC2(c3ccc(O)cc3Oc3cc(O)ccc32)c2ccccc21", "Vd [L/kg]": 0.14}
{"compound": "CN(C)[C@@H]1C(O)=C(C(N)=O)C(=O)[C@@]2(O)C(O)=C3C(=O)c4c(O)ccc(Cl)c4[C@@](C)(O)[C@H]3C[C@@H]12", "Vd [L/kg]": 0.9}

Next:
**Query** For the compound C[C@]12CCC(=O)C=C1CC[C@@H]1[C@@H]2[C@@H](O)C[C@@]2(C)[C@H]1CC[C@]2(O)C(=O)CO [HYDROCORTISONE] , report Vd.
**Result** 0.38
